Test system: palmer pigweed (Amaranthus palmeri)
Assay: Test E pre-/postemergence greenhouse test, plant response rating 0-100
Type: in vivo
Details: Amaranthus palmeri, post-emergence; Postemergence, 125 g ai/ha; scale 0 to 100

[
  {
    "CHEMICAL SMILES": "COC(OC)(c1ccccc1)c1c[nH]nc1-c1cc(Cl)cc(Cl)c1",
    "pest or weed control at 125 g/ha / %": 85
  },
  {
    "CHEMICAL SMILES": "CCCn1cc(C(=O)c2ccccc2)c(-c2cc(Cl)cc(Cl)c2)n1",
    "pest or weed control at 125 g/ha / %": 60
  },
  {
    "CHEMICAL SMILES": "CCOC(OCC)(c1ccccc1)c1c[nH]nc1-c1cc(Cl)cc(Cl)c1",
    "pest or weed control at 125 g/ha / %": 95
  },
  {
    "CHEMICAL SMILES": "C#CCn1cc(C(=O)c2ccccc2)c(-c2cc(Cl)cc(Cl)c2)n1",
    "pest or weed control at 125 g/ha / %": 80
  }
]
